Would you mind telling me the reported pIC50 of each entry?
Test system: HCT-116 colon carcinoma
Assay: cells
Type: cell-based, human
Settings: HCT116 colon cancer cells; 3-6 days; crystal violet; triplicate
Method: Compounds were tested in HTC 116 cell line, which is an art-recognized isogenic human disease model predictive of activity in human patients. They were tested according to the following standard protocol: […]
Answers are plain numbers, as −log10 of the molar value.

The following molecules each have a reported value; give each one's pIC50.
1. COc1cc(O)c2c(c1)C(=O)c1cc3c(c(O)c1C2=O)[C@@H](O[C@H]1C[C@H](O)[C@@H](O)[C@H](C)O1)[C@H](OC)[C@](C)(O)C3=O
2. COc1cc(O)c2c(c1)C(=O)c1cc3c(c(O)c1C2=O)[C@@H](O[C@H]1C[C@H](OC)[C@@H](O)[C@H](C)O1)[C@H](OC)[C@](C)(O)C3=O
3. COc1cc(O)c2c(c1)C(=O)c1cc3c(c(O)c1C2=O)[C@@H](O[C@H]1C[C@](C)(N(C)C)[C@H](O[C@H]2C[C@](C)(O)[C@H](N(C)C)[C@H](C)O2)[C@H](C)O1)[C@H](OC)[C@](C)(O)C3=O
4. COc1cccc2c1C(=O)c1c(O)c3c(c(O)c1C2=O)C[C@@](O)(C(C)=O)C[C@@H]3O[C@H]1C[C@H](N)[C@H](O)[C@H](C)O1 [Daunorubicin, daunorubicin, reference compound]

*A*
1. 5.74
2. 5.85
3. 8.60
4. 8.17
